FACS-Seq fitted mean (log10): recorded values
B1: library; a variant is named by its letters at N, in order (parent)
chain: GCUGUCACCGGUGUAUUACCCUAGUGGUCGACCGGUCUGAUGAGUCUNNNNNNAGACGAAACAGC

# Variants of: B1
# test details: FACS-Seq fitted mean relative fluorescence mCherry/BFP with ligand (log10 relative fluorescence); ligand: hypoxanthine (xanthine aptamer); ligand concentration (+) FACS-Seq: 5 mM; higher = higher reporter protein expression
# condition label: HEK293T, ligand present: yes
readout name: FACS-Seq fitted mean (log10)

{"biopolymer sequence": "GCUGUCACCGGUGUAUUACCCUAGUGGUCGACCGGUCUGAUGAGUCUAGAGCGAGACGAAACAGC [AGAGCG]", "assay value": 0.431}
{"biopolymer sequence": "GCUGUCACCGGUGUAUUACCCUAGUGGUCGACCGGUCUGAUGAGUCUUUAAUAAGACGAAACAGC [UUAAUA]", "assay value": 0.658}
{"biopolymer sequence": "GCUGUCACCGGUGUAUUACCCUAGUGGUCGACCGGUCUGAUGAGUCUGUCAGGAGACGAAACAGC [GUCAGG]", "assay value": 0.67}
{"biopolymer sequence": "GCUGUCACCGGUGUAUUACCCUAGUGGUCGACCGGUCUGAUGAGUCUGAAUUAAGACGAAACAGC [GAAUUA]", "assay value": 0.557}
{"biopolymer sequence": "GCUGUCACCGGUGUAUUACCCUAGUGGUCGACCGGUCUGAUGAGUCUACUGAGAGACGAAACAGC [ACUGAG]", "assay value": 0.673}
{"biopolymer sequence": "GCUGUCACCGGUGUAUUACCCUAGUGGUCGACCGGUCUGAUGAGUCUCGACGGAGACGAAACAGC [CGACGG]", "assay value": 0.596}
{"biopolymer sequence": "GCUGUCACCGGUGUAUUACCCUAGUGGUCGACCGGUCUGAUGAGUCUAUAACAAGACGAAACAGC [AUAACA]", "assay value": 0.0853}
{"biopolymer sequence": "GCUGUCACCGGUGUAUUACCCUAGUGGUCGACCGGUCUGAUGAGUCUCCCUGAAGACGAAACAGC [CCCUGA]", "assay value": 0.308}
{"biopolymer sequence": "GCUGUCACCGGUGUAUUACCCUAGUGGUCGACCGGUCUGAUGAGUCUAGUUAGAGACGAAACAGC [AGUUAG]", "assay value": 0.569}
{"biopolymer sequence": "GCUGUCACCGGUGUAUUACCCUAGUGGUCGACCGGUCUGAUGAGUCUAUGAGGAGACGAAACAGC [AUGAGG]", "assay value": 0.252}
{"biopolymer sequence": "GCUGUCACCGGUGUAUUACCCUAGUGGUCGACCGGUCUGAUGAGUCUAGGUAUAGACGAAACAGC [AGGUAU]", "assay value": 0.665}
{"biopolymer sequence": "GCUGUCACCGGUGUAUUACCCUAGUGGUCGACCGGUCUGAUGAGUCUUAGCAGAGACGAAACAGC [UAGCAG]", "assay value": 0.507}
{"biopolymer sequence": "GCUGUCACCGGUGUAUUACCCUAGUGGUCGACCGGUCUGAUGAGUCUAUCAGAAGACGAAACAGC [AUCAGA]", "assay value": 0.00695}
{"biopolymer sequence": "GCUGUCACCGGUGUAUUACCCUAGUGGUCGACCGGUCUGAUGAGUCUUCUCUAAGACGAAACAGC [UCUCUA]", "assay value": 0.493}
{"biopolymer sequence": "GCUGUCACCGGUGUAUUACCCUAGUGGUCGACCGGUCUGAUGAGUCUGCUCAAAGACGAAACAGC [GCUCAA]", "assay value": 0.495}
{"biopolymer sequence": "GCUGUCACCGGUGUAUUACCCUAGUGGUCGACCGGUCUGAUGAGUCUGCCGCAAGACGAAACAGC [GCCGCA]", "assay value": 0.587}
{"biopolymer sequence": "GCUGUCACCGGUGUAUUACCCUAGUGGUCGACCGGUCUGAUGAGUCUGGGAUGAGACGAAACAGC [GGGAUG]", "assay value": 0.564}
{"biopolymer sequence": "GCUGUCACCGGUGUAUUACCCUAGUGGUCGACCGGUCUGAUGAGUCUCCGACCAGACGAAACAGC [CCGACC]", "assay value": 0.555}
{"biopolymer sequence": "GCUGUCACCGGUGUAUUACCCUAGUGGUCGACCGGUCUGAUGAGUCUUUCUAAAGACGAAACAGC [UUCUAA]", "assay value": -0.13}
{"biopolymer sequence": "GCUGUCACCGGUGUAUUACCCUAGUGGUCGACCGGUCUGAUGAGUCUGAUCGGAGACGAAACAGC [GAUCGG]", "assay value": 0.418}
{"biopolymer sequence": "GCUGUCACCGGUGUAUUACCCUAGUGGUCGACCGGUCUGAUGAGUCUACGUAGAGACGAAACAGC [ACGUAG]", "assay value": 0.574}
{"biopolymer sequence": "GCUGUCACCGGUGUAUUACCCUAGUGGUCGACCGGUCUGAUGAGUCUGCCUCGAGACGAAACAGC [GCCUCG]", "assay value": 0.649}
